methodDescription: Example 19 crossover pharmacokinetics of four oral tablet formulations in fasted dogs
Type: in vivo, beagle dogs
setupConditions: male, beagle, dog, plasma, po, 200 mg/tablet/dog, Example 19, fasted dogs, 200 mg tablet PO, mean; LOQ 1.02 to 5.1 ng/mL; read-out: Plasma concentration of Compound I at 0.5 hours
quantityKind: concentration at 0.5 h (ng/mL)
Kindly provide the numeric value in ng/mL only, without the unit symbol.

For the compound Cc1ccc(S(=O)(=O)O)cc1.Cn1cc(-c2cn(-c3ccc(OC(F)(F)F)cc3)c(=O)c3ncn(C)c23)cn1 [mono-tosylate] , what concentration at 0.5 h is on record? 3450
